Listed next: entries and their corresponding cytotoxicity at 10 µM.
- assay-protocol: Toxicity liver stage against HepG2, at 10uM
- Format: cell-based
- Parameters: test concentration 10 uM, cell line HepG2-A16-CD81EGFP
- measurement-parameters: human, HepG2-A16-CD81EGFP cells; read-out: INHIBITION
outcome-measure: cytotoxicity at 10 µM (%)

{"compound": "CCc1ncc2c(n1)CN(Cc1nc(-c3ccccn3)no1)CC2", "outcome-measure": "cytotoxicity at 10 µM", "readout-units": "%", "result-number": -20.9}
{"compound": "CCO[C@H]1CN(CC2CC2)[C@@H]2CCCO[C@H]12", "outcome-measure": "cytotoxicity at 10 µM", "readout-units": "%", "result-number": -105}
{"compound": "Cc1ccccc1OCCCC(=O)NCC1CN(C)CCO1 (stereo unspecified)", "outcome-measure": "cytotoxicity at 10 µM", "readout-units": "%", "result-number": -8.69}
{"compound": "CCCn1ncc(C(=O)N2CCN(C3CCSCC3)CC2)c1C", "outcome-measure": "cytotoxicity at 10 µM", "readout-units": "%", "result-number": -148}
{"compound": "CCn1cc2c(n1)CN(S(=O)(=O)c1ccc(C)cc1)CC2COC (stereo unspecified)", "outcome-measure": "cytotoxicity at 10 µM", "readout-units": "%", "result-number": 5.77}
{"compound": "CC1=Nc2c(c(=O)[nH]n2C(C)C)C(c2ccc3nccnc3c2)S1 (stereo unspecified)", "outcome-measure": "cytotoxicity at 10 µM", "readout-units": "%", "result-number": 7.29}

Cited source for all entries: ChEMBL document CHEMBL4513216
